- Study System: UniProt:P35367
- Sequence (P35367 whole entry): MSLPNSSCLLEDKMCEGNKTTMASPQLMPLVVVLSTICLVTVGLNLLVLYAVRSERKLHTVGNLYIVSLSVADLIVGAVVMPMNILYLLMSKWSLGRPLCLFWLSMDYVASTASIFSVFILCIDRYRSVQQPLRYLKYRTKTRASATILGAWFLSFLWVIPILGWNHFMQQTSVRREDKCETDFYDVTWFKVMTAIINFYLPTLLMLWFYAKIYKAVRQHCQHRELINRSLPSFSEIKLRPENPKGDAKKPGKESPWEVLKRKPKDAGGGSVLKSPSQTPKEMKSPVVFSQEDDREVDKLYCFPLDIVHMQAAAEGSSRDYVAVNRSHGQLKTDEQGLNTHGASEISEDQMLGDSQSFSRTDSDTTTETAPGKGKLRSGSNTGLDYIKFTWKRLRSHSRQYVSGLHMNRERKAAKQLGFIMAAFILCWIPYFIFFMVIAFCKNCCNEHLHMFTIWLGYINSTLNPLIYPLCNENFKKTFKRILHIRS
- Measurement Description: Calcium Flux HRH1 Antagonist
- Format: cell-based
- Condition Parameters: Calcium Flux HRH1 Antagonist; read-out: RC50, result type IC50
Measurement Type: IC50

Smi	Study System	Assay Result
Clc1cccc(C#Cc2n[nH]c3ncccc23)c1	UniProt:P35367	> 10 µM

---

- Study System: HTR2B (Homo sapiens, UniProt P41595)
- Sequence (P41595 whole entry): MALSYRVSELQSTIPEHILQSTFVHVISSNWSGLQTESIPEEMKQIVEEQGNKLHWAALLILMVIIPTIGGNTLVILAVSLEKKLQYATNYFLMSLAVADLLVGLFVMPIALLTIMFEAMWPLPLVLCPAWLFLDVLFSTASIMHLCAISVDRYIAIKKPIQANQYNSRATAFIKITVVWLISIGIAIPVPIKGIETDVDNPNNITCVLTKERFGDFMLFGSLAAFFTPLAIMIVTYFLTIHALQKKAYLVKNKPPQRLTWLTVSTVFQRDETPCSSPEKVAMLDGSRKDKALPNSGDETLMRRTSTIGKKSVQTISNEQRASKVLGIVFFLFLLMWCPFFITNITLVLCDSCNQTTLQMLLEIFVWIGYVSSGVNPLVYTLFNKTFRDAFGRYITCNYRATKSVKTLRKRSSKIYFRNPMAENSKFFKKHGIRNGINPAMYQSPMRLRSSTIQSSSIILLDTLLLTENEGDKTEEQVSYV
- Measurement Description: Calcium Flux HTR2B Antagonist

Molecule	IC50
CC(C)(C)c1ccc(C#CC(O)c2ccccc2)cc1 (racemic) [Compound 3.3]	> 10 µM
Clc1cccc(C#Cc2n[nH]c3ncccc23)c1 [Compound 10.1]	> 10 µM
